experiment: Human intestinal absorption in po dosed human; conditions: in vivo
Returns criterion met if the recorded Fa is greater than or equal to 70%, and criterion not met otherwise.

compound | assigned label
CC(C)(C)NCC(O)c1cc(O)cc(O)c1 (centres undefined) | criterion not met

Could you tell me if the measured Fa of `CCOC(=O)[C@H](CCc1ccccc1)N[C@@H](C)C(=O)N1CCC[C@H]1C(=O)O` reaches 70% or more?
criterion not met

Does Fa meet or surpass 70% for `CCCc1nc2c(C)cc(-c3nc4ccccc4n3C)cc2n1Cc1ccc(-c2ccccc2C(=O)O)cc1` ?
criterion met

Decide: is the reported value of Fa for `O=C1Cc2cc(CCN3CCN(c4nsc5ccccc45)CC3)c(Cl)cc2N1` equal to or greater than 70%?
criterion not met
